target: fusion protein PRF
Sequence (chain, as listed by the source): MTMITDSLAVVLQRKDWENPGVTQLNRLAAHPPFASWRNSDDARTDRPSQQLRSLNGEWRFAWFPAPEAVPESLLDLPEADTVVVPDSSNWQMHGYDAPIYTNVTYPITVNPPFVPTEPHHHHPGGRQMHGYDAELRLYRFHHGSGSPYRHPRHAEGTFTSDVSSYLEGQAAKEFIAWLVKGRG
PROPERTY NAME: relative cleavage efficiency

Using the record for OmpT protease variant OmpT D97H (protein) STETLSFTPDNINADISLGTLSGKTKERVYLAEEGGRKVSQLDWKFNNAAIIKGAINWDLMPQISIGAAGWTTLGSRGGNMVDQDWMDSSNPGTWTHESRHPDTQLNYANEFDLNIKGWLLNEPNYRLGLMAGYQESRYSFTARGGSYIYSSEEGFRDDIGSFPNGERAIGYKQRFKMPYIGLTGSYRYEDFELGGTFKYSGWVESSDNDEHYDPGKRITYRSKVKDQNYYSVAVNAGYYVTPNAKVYVEGAWNRVTNKKGNTSLYDHNNNTSDYSKNGAGIENYNFITTAGLKYTF , report its relative cleavage efficiency.
4.1%
